Where do these numbers come from? They come from ChEMBL document CHEMBL3046889.

Tested on: Nicotiana tabacum
test_name: Inhibition of Nicotiana tabacum (tobacco) root growth assessed as inhibition of root elongation
Assay type: functional, organism-based
readout_type: EC50 (nM)
Write the value in nM as a bare number.

Worked examples, 4 compounds total:
[
  {
    "compound": "COc1ccc([C@H]2CC=CC[C@@H]2C#N)c(OC)c1OC (single isomer, unassigned; enantiomer I)",
    "measured_target": "Nicotiana tabacum",
    "reported_result": 667
  },
  {
    "compound": "COc1ccc([C@@H]2CC=CC[C@H]2[N+](=O)[O-])c(OC)c1OC (single isomer, unassigned)",
    "measured_target": "Nicotiana tabacum",
    "reported_result": 1960
  },
  {
    "compound": "COc1ccc([C@@H]2CC=CC[C@H]2[N+](=O)[O-])c(OC)c1OC (single isomer, unassigned; enantiomer I)",
    "measured_target": "Nicotiana tabacum",
    "reported_result": 100
  },
  {
    "compound": "COc1ccc([C@H]2CC=CC[C@@H]2C#N)c(OC)c1OC (single isomer, unassigned; enantiomer II)",
    "measured_target": "Nicotiana tabacum",
    "reported_result": 7170
  }
]

Note: attention shifts to another entry.
Reported EC50, compound COc1ccc([C@@H]2CC=CC[C@H]2[N+](=O)[O-])c(OC)c1OC (racemic) : ____
270

====

Test system: HCT-116
test_name: Antitumor activity against Homo sapiens (human) HCT116 cells
Format: functional, cell-based
measurement_conditions: Homo sapiens, HCT-116
readout_type: EC50 (µM)
Write the value in µM as a bare number.

Worked examples, 3 compounds total:
[
  {
    "compound": "COc1ccc(-c2ccc(OC)c(OC)c2OC)c(C#N)c1",
    "EC50 / µM": 0.58
  },
  {
    "compound": "COc1ccc(-c2ccccc2[N+](=O)[O-])c(OC)c1OC",
    "EC50 / µM": 19.6
  },
  {
    "compound": "COc1ccc([C@@H]2CC=CC[C@H]2[N+](=O)[O-])c(OC)c1OC (single isomer, unassigned)",
    "EC50 / µM": 71
  }
]

Field: EC50 (HCT-116). Entry: COc1ccc(-c2ccc(OC)c(OC)c2OC)c(C)c1
0.78

Field: EC50 (HCT-116). Entry: COc1ccc(-c2ccc(OC)c(OC)c2OC)c([N+](=O)[O-])c1
2.65

Field: EC50 (HCT-116). Entry: COc1cccc([C@@H]2CC=CC[C@H]2[N+](=O)[O-])c1 (racemic)
143

Field: EC50 (HCT-116). Entry: COc1cc2c(c(OC)c1OC)-c1ccc(OC)c(=O)cc1[C@@H](NC(C)=O)CC2
0.02

====

Below, each entry is listed with its recorded pEC50.
Tested on: HCT-116
test_name: Antitumor activity against Homo sapiens (human) HCT116 cells
Format: functional, cell-based
measurement_conditions: Homo sapiens, HCT-116
Please treat pEC50 as minus the base-10 logarithm of the molar concentration.

Worked examples, 3 molecules total:
[
  {
    "molecule": "COc1ccc(-c2ccc(OC)c(OC)c2OC)cc1",
    "pEC50": 5.82
  },
  {
    "molecule": "COc1ccc(C2CC=CCC2C#N)c(OC)c1OC (mixture of isomers)",
    "pEC50": 3.95
  },
  {
    "molecule": "O=[N+]([O-])[C@@H]1CC=CC[C@H]1c1ccccc1 (mixture of isomers)",
    "pEC50": 3.76
  }
]

Note: attention shifts to another entry.
Field: pEC50 (HCT-116). Entry: COc1ccc(-c2ccccc2C#N)c(OC)c1OC
4.86
